Some variants, each annotated with its measured protein stability index.
B1: ISL2 (parent)
chain: HYPFLGAMGDHSKKKPGTAMCVGC

- Variants of: B1
- experiment-summary: protein stability index of a GFP-peptide fusion (GPS, HEK-293T) (PSI 1-6); higher = more stable;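 also: lentivirally expressed fusions sorted by FACS into six bins by GFP to DsRed ratio, PSI derived from sequencing read proportions per bin multiplied by bin number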
- assay-conditions: c terminus: a fixed tail appended
API note: the answer field is a bare number with no unit suffix.

Data request: Using the record for G17L , state its measured protein stability index.
Data returned: 2.1

Data request: Using the record for F4N , state its measured protein stability index.
Data returned: 3.38

Data request: Using the record for T18C , state its measured protein stability index.
Data returned: 3.02

Data request: Using the record for P3L , state its measured protein stability index.
Data returned: 1.77

Data request: Using the record for H11W , state its measured protein stability index.
Data returned: 1.93

Data request: Using the record for C21E , state its measured protein stability index.
Data returned: 3.39

Data request: Using the record for G9M , state its measured protein stability index.
Data returned: 2.65

Data request: Using the record for M20S , state its measured protein stability index.
Data returned: 3.55

Data request: Using the record for C21G , state its measured protein stability index.
Data returned: 3.12

Data request: Using the record for S12E , state its measured protein stability index.
Data returned: 3.03

Data request: Using the record for F4L , state its measured protein stability index.
Data returned: 2.51

Data request: Using the record for H11L , state its measured protein stability index.
Data returned: 2.21

Data request: Using the record for M20A , state its measured protein stability index.
Data returned: 3.27
